Record form. Attribute: GI50. Fill in for each entry.
Tested on: OVCAR-3
Assay: NCI tumour cell line growth inhibition, 48 h
The source made the active and inactive calls. Rule as the data show it: active = GI50 up to about 1.1 µM and inactive = higher.

COMPOUND | QUANTITY KIND | VALUE REPORTED
N#C/C(=C/n1c(=S)[nH]c2ccccc21)C(N)=O | GI50 | > 100 µM (inactive)

# batch size: 3; output GI50 per entry
1. COc1ccc2c(=O)cc(-c3ccc(OC)c(OC)c3OC)oc2c1
2. CCCCCOC(=O)C(=O)Nc1[nH]nnc1C(N)=O
3. C=CC[C@H](C[C@H](C[C@H](C[C@H](C[C@H](C[C@H](C[C@H](C[C@H](C[C@H](C[C@H](CCCCC)OC)OC)OC)OC)OC)OC)OC)OC)OC)OC

Ans:
1. > 44.4 µM (inactive)
2. > 100 µM (inactive)
3. > 100 µM (inactive)

# batch size: 2; output GI50 per entry
1. CCOC(=O)c1csc(NC(=O)C(C)N2CCOCC2)n1 (configuration not stated)
2. CSC1=C(c2ccc(Cl)cc2)SC(N2CCCCC2)N1c1ccc([N+](=O)[O-])cc1 (configuration not stated)

Ans:
> 100 µM (inactive)
21.8 µM (inactive)

Form field GI50, entry `CC1(C)C(=O)/C=C\C(=O)C(C)(C)C2=CC=C(O2)C(C)(C)C(=O)/C=C\C(=O)C(C)(C)C2=CC=C1O2` : > 100 µM (inactive)

* * *

Test system: KM12
Test: NCI tumour cell line growth inhibition, 48 h
Calls of active or inactive are those of the source. Cut-off read from the data, not from the text of the source: active = GI50 up to about 1.1 µM and inactive = higher.
Thanks in advance; please answer with one of these: 1 = active, -1 = inactive

Examples with answers:
COMPOUND | CAT
NC(=O)C(=O)C1CCC2=C(Sc3ccccc3N2)C1=O (stereo unspecified) | -1
Clc1ccc2c(Cl)ncnc2c1 | -1
COC(=O)C1C(OC(=O)C(Cl)(c2ccccc2)c2ccccc2)CC2CCC1N2C (stereo unspecified) | -1
COc1cccc([C@@H]2C/C(=N\NC(=O)C(=O)N[C@@H](C)c3ccccc3)c3ccccc3N2)c1 | -1
Cc1cc(/N=N/c2c(O)ccc3ccccc23)ccc1/N=N/c1cccc([N+](C)(C)C)c1 | -1

Q: Could you check what this test reported for O=C1OC(c2ccccc2)=N/C1=C/NC(CO)C(=O)O (stereo unspecified) ?
Ans: -1

Q: Could you check what this test reported for `CCC1(CCSC(=N)N)C(=O)NC(=O)NC1=O` ?
Ans: -1

Q: Could you check what this test reported for COC(=O)C(=O)C(C(=O)C(=O)Nc1nnc(S)[nH]1)c1nc2ccc([N+](=O)[O-])cc2nc1O (stereo unspecified) ?
Ans: -1

Q: Could you check what this test reported for `COc1cccc(C=C2N=C(c3ccccc3)N(n3c(-c4ccccc4)nc4ccccc4c3=O)C2=O)c1` ?
Ans: -1

* * *

Tested on: LOX IMVI
Assay: NCI tumour cell line growth inhibition, 48 h
Active and inactive are the calls of the source. Cut-off read from the data, not from the text of the source: active = GI50 up to about 1.1 µM and inactive = higher.
QUANTITY KIND: GI50

Worked cases, answers included:
COMPOUND | TARGET | VALUE REPORTED
CCCSc1ccc2[nH]c(N3C(=O)/C(=C/c4ccc(O)c(OC)c4)N=C3c3ccccc3)cc2c1 | LOX IMVI | 7.14 µM (inactive)
CC1(C)O[C@H]2OC(CO)C(OS(C)(=O)=O)[C@H]2O1 (some centres not stated) | LOX IMVI | > 100 µM (inactive)

# batch size: 5; output GI50 per entry
1. CC(=O)c1ccc2c(c1)oc(=O)n2CCN(C)C
2. Nc1nc(OCc2ccccc2)c2nc[nH]c2n1
3. CCOC(=O)C1(Cc2ccccc2)C=CN(C(=O)c2ccccc2)C=C1
4. CN(C)/C=N\c1cccc2c1NSN2
5. C=CCOC(=O)NC1C(OC(C)[C@@H](NC(=O)OCc2ccccc2)C(=O)OC(C)(C)C)OC(COC(C)=O)C(OC(C)=O)C1OC(C)=O (some centres not stated)

Ans:
1: > 100 µM (inactive); 2: 64.6 µM (inactive); 3: 34.4 µM (inactive); 4: > 100 µM (inactive); 5: 86.7 µM (inactive)
